# Tested on: HCT-15 colon
# assay: NCI tumour cell line growth inhibition, 48 h
Where a SMILES comes first, the peptide text is derived from it. [ ]: non-standard residue; d: D form. The star is where a group is joined. Bn2Val = CC(C)[C@@H](C(=O)*)N(Cc1ccccc1)Cc1ccccc1; NH(4-F-benzyl) = Fc1ccc(CN*)cc1; NMeV = CN[C@H](C(=O)O)C(C)C; dNMeA = CN[C@H](C)C(=O)O
readout label: TGI

// worked examples, TGI included
molecule	TGI
Clc1ccc(-c2ccc(CNCC3CCNCC3)o2)c(-c2ccccc2)c1	2.6 µM
CC(C)[C@H](NC(=O)[C@H](C(C)C)N(Cc1ccccc1)Cc1ccccc1)C(=O)N(C)[C@H](C(=O)N1CCC[C@H]1C(=O)N(C)[C@H](C)C(=O)NCc1ccc(F)cc1)C(C)C (Bn2Val-V[NMeV]P[dNMeA]-{NH(4-F-benzyl)})	> 80.9 µM
CCc1nc(N)nc(N)c1-c1ccc2c(c1)nnn2CCc1ccccc1	> 63.2 µM

Return TGI measured with HCT-15 colon given this molecule: Cc1cn(C(=O)NC23CC4CC(CC(C4)C2)C3)c(=O)[nH]c1=O 80.3 µM

Next molecule: CNS(=O)(=O)NN(C)S(=O)(=O)c1ccc(OC)cc1 > 100 µM

Request: Cc1ccc(-c2c(C#N)c(-c3ccccc3)c(C#N)c(=O)n2NS(=O)(=O)c2ccc(C)cc2)cc1 > 100 µM

Proceed to CC(C)(NO)/C(=N\O)c1ccco1 > 100 µM

# repeat for C[Si](C)(C)/N=C1\N2C(=NC1(C(F)(F)F)C(F)(F)F)Sc1ccccc12 > 50 µM

What do we get for N#Cc1c(O)c(C=Nc2ccc(Cl)cc2)c(=O)n2c1[nH]c1ccccc12 ? > 100 µM

Would you mind doing C/C=C1/C[C@@H](C)[C@@](C)(O)C(=O)OCC2=CC[N+]3([O-])CC[C@@H](OC1=O)[C@@H]23 (stereo partly drawn) as well? > 100 µM

For CCOC(=O)c1sc2nc(SC)nc(Nc3ccc4c(c3)OCO4)c2c1N then? > 100 µM

Another molecule: O/N=C(\C(=N/O)Nc1ccc(-c2ccc(NC(=N/O)/C(=N\O)c3ccccc3)cc2)cc1)c1ccccc1 70 µM

Try the molecule O=C(c1ccccc1)c1ccc2nc(-c3c(Cl)c(Cl)c(Cl)c(Cl)c3C(=O)N/N=C\C=C\c3ccccc3)[nH]c2c1 > 100 µM

Also COc1ccc([C@H]2[C@H](C)C3=Nc4ccccc4CN32)cc1 , if possible. > 100 µM

Proceed to COc1ccc(-c2c3ccccc3c(-c3ccc(OCCBr)cc3)c3ccccc23)cc1 > 100 µM

Same read-out for Cc1cc(C)nc(NS(=O)(=O)c2ccc(NNc3c4ccccc4nc4c(C(=O)Nc5ccc(S(=O)(=O)N=C(N)N)cc5)cccc34)cc2)n1 ? > 100 µM

And what about the molecule COc1cc(C(C)c2cc3c(cc2OCCN)OCO3)cc(OC)c1OC (stereo not drawn) ? > 100 µM

Here is the next molecule: COc1ccc(/C=C2/SC(c3ccccc3)N(NC(=O)CCCCCCCCC(=O)NN3C(=O)/C(=C\c4ccc(OC)c(OC)c4)SC3c3ccccc3)C2=O)cc1OC (stereo not drawn) > 100 µM

----------
# Test system: SR leukemia
readout label: GI50

Sample answers from the record:
In [3]: df
Out[3]:
                                   compound  readout_label  observed_result
0  O=C1C=C(Nc2ccc([N+](=O)[O-])cc2)c2ccccc2C1=O           GI50          2.55 µM
1  C/C(Cc1ccc(Cl)cc1)=C(\c1ccc(OCCN2CCCCCC2)cc1)c1ccc(OC(=O)c2ccccc2)cc1           GI50          1.25 µM
2  COc1ccc(C(O)c2cc3c(N)c(C(=O)Nc4ccc(Br)cc4)sc3nc2C)cc1 (configuration not stated)           GI50         0.594 µM
3  Cc1nc2ccccn2c1NC(=O)NNC(=S)Nc1ccc(Cl)cc1           GI50          95.7 µM

Value lookup for GI50; key = Cc1ccc2c(c1)c(C1=C(c3cn(C)c4ccccc34)C(=O)NC1=O)cn2C 0.966 µM

Also, C=C(CN1CCc2ccccc2C1)c1ccc(CCC(=O)Nc2ccccc2N)cc1 please. 18.7 µM

Try CCOC(=O)Nc1nc2cc(OC)c(OC)c(OC)c2s1 next. > 100 µM

Same again, this time with Clc1nc(Cl)c2ncn(CC#CCn3cnc4c(Cl)nc(Cl)nc43)c2n1 0.38 µM

Input Nc1nonc1-c1nc2cnccc2n1C1CCCCC1 7.35 µM

Now give it for Cc1ccc(-c2c3c(nn2-c2ccc(S(=O)(=O)NC(=O)Nc4ccccc4)cc2)-c2ccccc2C3)cc1 too. 2.26 µM

Now try COc1cccc2c(Nc3ccc(C(=O)O)cc3)cc(-c3ccccc3)nc12 . > 100 µM

What do you get for CC(=O)N1CCN([C@H]2CCC[C@@H](NC(=O)c3cc4c(F)ccc(C)c4[nH]3)C2)CC1 ? 14 µM

----------
# Test system: NCI-H522 lung
# assay: NCI tumour cell line growth inhibition, 48 h
readout label: TGI (µM)
// note: answer is a bare numeric in µM

                                   molecule  observed_result
0  COc1cc(/C=C2\N=C(c3ccccc3)N(c3cc4cc(Sc5ccccc5)ccc4[nH]3)C2=O)cc(OC)c1OC             12.9
1       CCCCc1[nH]ccc2c(C)c3nc4ccccc4c3cc12             6.75

Now consider the entry below.
For NCI-H522 lung, provide TGI of C=C1CCC(O)C/C1=C/C=C1\CCCC2(C)C1CCC2C(C)CCCC(C)C (stereo not given) please. 33

----------
# Tested on: 786-0 renal
# assay: NCI tumour cell line growth inhibition, 48 h
readout label: TGI

compound	TGI
CC(=O)c1c(C)cn(S(=O)(=O)NC(=O)Nc2nncs2)c1C	> 100 µM
Cc1cc(C23OC4COC(C)(C)OC4C2OC(C)(C)O3)nc2ccccc12 (stereo not given)	> 100 µM
Cc1nc(Nc2ccc(Cl)cc2Cl)sc1C(=O)Nc1ccccc1	> 100 µM
CC(=O)Oc1cc2oc(=O)cc(C)c2cc1OC(C)=O	> 100 µM
COc1cc(Nc2nc3c(N)cc(C(F)(F)F)cc3nc2-c2ccccc2)cc(OC)c1OC	74.4 µM

Could you share which TGI value was measured for COc1cccc2c(Nc3ccc(C(=O)O)cc3)cc(-c3ccccc3)nc12 ? > 100 µM

Also check O=C(O)C(C(C(=O)O)P(=O)(O)O)P(=O)(O)O (stereo not given) > 100 µM

Please give the result for COC(=O)/C(=C(\C)NC(C)=O)c1c(C(=O)OC)[nH]c2ccccc12 too. > 100 µM

Note, next up: COC(=O)C1=C(OC(=O)/C(=C/c2ccccc2)c2ccccc2)C(C(=O)OC)[C@@]2(O)[C@@H](C(=O)OC)[C@H](C)C[C@@H]1[C@@H]2C(=O)OC (stereo not given in full) > 100 µM

And for O=C1CC(c2ccccc2Cl)C2(C(=O)NC(=S)NC2=O)C(c2ccccc2Cl)C1 (stereo not given) ? 51 µM

----------
# System: NCI-H23 lung
# assay: NCI tumour cell line growth inhibition, 48 h
Where a SMILES comes first, the peptide text is derived from it. [ ]: non-standard residue; d: D form. The star is where a group is joined. NMeF = CN[CH](Cc1ccccc1)C(=O)O; NMeV = CN[CH](C(=O)O)C(C)C; Boc = CC(C)(C)OC(=O)*
Threshold rule: TGI greater than or equal to 20 µM is true; below that, false.

Some entries whose results are on file:
compound	group
COc1cc(/C=C2\N=C(c3ccccc3)N(c3cc4cc(Sc5ccccc5)ccc4[nH]3)C2=O)cc(OC)c1OC	true
COC(=O)c1cc(CC2Cc3cc4c(cc3C2)CCC4)cc2c1CCC2	true
O=C1Cc2c([nH]c3ccc(Cl)cc23)-c2ccccc2N1	true
CC(=O)Nc1ccc(C2C(C(=O)Nc3ccccc3C)=C(C)NC(C)=C2C(=O)Nc2ccccc2C)cc1	true

Given the entry COc1ccc(-n2sc3ncc(C)cc3c2=O)cc1 , answer whether its TGI meets or surpasses 20 µM. true

Let us now turn to C=CC(=O)N1CC2(CCC(n3nc(-c4ccc(Oc5ccccc5)cc4)c4c(N)ncnc43)CC2)C1 false

Next entry: COc1ccc(C2C(C#N)=C(N)Oc3c2sc2c(C)cccc32)cc1 (stereo not given) false

Repeat for the following compound: C/C(Cc1ccc(Cl)cc1)=C(\c1ccc(OCCN2CCCCCC2)cc1)c1ccc(OC(=O)c2ccccc2)cc1 false

What do you have for CC(C)(C)N1C(=O)N=[N+](/C(=C(\c2ccccc2)n2nc([O-])n(C(C)(C)C)c2=O)c2ccccc2)C1=O ? true

Please do the same for COC(=O)C1SC(N(C)c2ccccc2)=NC12c1ccccc1Nc1ccccc12 (stereo not given) as well. true

Subsequent entry: COc1cc(C2C(C(=O)O)=C(CO)Oc3cc4c(cc32)OCO4)cc(OC)c1OC (stereo not given) true

Next: CC[C@H](Nc1cc(C)nc(N)n1)c1nc2cccc(NCc3ccc(C(=O)NO)cc3)c2c(=O)n1-c1ccccc1 false

Ok, now CCOC(=O)c1sc2nc(SC)nc(Nc3ccc4c(c3)OCO4)c2c1N true

Another: COc1cc(/C=C2/SC(c3ccccc3)N(c3cc(Cl)ccc3Cl)C2=O)cc(OC)c1OC (stereo not given) true

Now try CC(C)C(NC(=O)OC(C)(C)C)C(=O)N(C)C(Cc1ccccc1)C(=O)N(C)C(C(=O)N(C)C(C(=O)O)C(C)C)C(C)C (stereo not given) (Boc-V[NMeF][NMeV][NMeV]-OH; configuration not given here) . true

Also, COc1cc(C(C)c2cc3c(cc2OCCN)OCO3)cc(OC)c1OC (stereo not given) please. true

And CCCCCc1cccc(=O)o1 ? true

// repeat for O=C1CC(c2ccccc2Cl)C2(C(=O)NC(=S)NC2=O)C(c2ccccc2Cl)C1 (stereo not given) and report true

Could you do the same for Cc1c(C)c(S(=O)(=O)N(CCCCCCN)OCCCN)c(C)c2c1OC(C)(C)CC2 , please? true
